# test_target: KHK-C expressed in NRK-52E cells (Homo sapiens (Human), UniProt P50053)
# Sequence (P50053 whole entry): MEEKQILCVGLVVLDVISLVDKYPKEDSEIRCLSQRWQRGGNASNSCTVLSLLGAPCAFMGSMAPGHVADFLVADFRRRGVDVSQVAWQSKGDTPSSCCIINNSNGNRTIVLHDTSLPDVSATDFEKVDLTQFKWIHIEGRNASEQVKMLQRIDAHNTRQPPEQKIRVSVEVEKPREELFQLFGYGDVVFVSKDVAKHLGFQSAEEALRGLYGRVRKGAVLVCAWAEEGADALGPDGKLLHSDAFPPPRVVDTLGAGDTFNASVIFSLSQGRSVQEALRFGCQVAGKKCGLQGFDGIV
# assay_overview: KHK-C Cell-based Assay (EC50), NRK CTG, fructose-mediated ATP-depletion
Response field label: string, one of 1 (EC50 strictly below 100 nM) or 0.

- molecule: "C[C@H]1CCN1c1nc2c(c(-c3cccc(C(=O)NCCC(=O)O)c3)n1)CCC2 [Example 217]"
  class_name: 0
- molecule: "C[C@H]1CCN1c1nc2c(c(-c3ccc4[nH]nc(CC(=O)O)c4c3)n1)CCC2 [Example 70]"
  class_name: 0
- molecule: "C[C@H]1CCN1c1nc2c(c(-c3cn(C4COC4)nn3)n1)CCC2 [Example 704]"
  class_name: 0
- molecule: "C[C@H]1CCN1c1nc2c(c(-c3cccc(C4(O)CS(=O)(=O)C4)c3)n1)CCC2 [Example 397]"
  class_name: 0
- molecule: "C[C@H]1[C@H](O)CN1c1nc(-c2ccc3c(c2)OC[C@]32CN(C)C(=O)N2)c2c(n1)C(F)(F)CC2 (single isomer, unassigned) [Example 701]"
  class_name: 0
- molecule: "C[C@H]1CCN1c1nc2c(c(-c3ccc4c(c3)[C@]3(C[C@H]3C(=O)O)C(=O)N4)n1)CCC2 (racemic) [Example 408]"
  class_name: 0
- molecule: "C[C@H]1COc2cc(-c3nc(N4C[C@@H](O)[C@@H]4C)nc4c3CCC4(F)F)ccc2C(=O)N1 [Example 179]"
  class_name: 0
- molecule: "C[C@H]1[C@H](O)CN1c1nc(-c2ccc(C(N)=O)cc2)c2c(n1)C(F)(F)CC2 [Example 129]"
  class_name: 1
- molecule: "C[C@H]1CCN1c1nc2c(c(-c3ccc(C(O)C(F)F)cc3)n1)CCC2 (some centres unmarked) [Example 256]"
  class_name: 0
- molecule: "C[C@H]1[C@H](O)CN1c1nc2c(c(-c3cccc(NS(=O)(=O)CC(=O)O)c3)n1)CCC2 [Example 82]"
  class_name: 0
- molecule: "CSCC1CCN1c1nc2c(c(-c3ccc(C(N)=O)cc3)n1)CCC2 (centres unmarked) [Example 415]"
  class_name: 0
- molecule: "C[C@H]1C[C@H](C)N1c1nc(-c2ccc(C3(N)COC3)cc2)c2c(n1)C(F)(F)CC2 [Example 504]"
  class_name: 1
- molecule: "C[C@H]1[C@H](O)CN1c1nc2c(c(-c3ccc(-c4ncc[nH]4)cc3)n1)CCC2 [Example 193]"
  class_name: 0
- molecule: "CC(O)c1cccc(-c2nc(N3CC[C@@H]3C)nc3c2CCC3)c1 (some centres unmarked) [Example 276]"
  class_name: 0
- molecule: "CC(C)(O)[C@H]1CCN1c1nc2c(c(-c3ccc(C(N)=O)cc3)n1)CCC2 [Example 436]"
  class_name: 0
- molecule: "C[C@H]1CCN1c1nc(-c2cccc(C(N)=O)c2)c2c(cnn2C)n1 [Example 271]"
  class_name: 0
- molecule: "C[C@H]1CCN1c1nc2c(c(-c3cccc(CN4CCCCC4)c3)n1)CCC2 [Example 345]"
  class_name: 1
- molecule: "C[C@H]1[C@H](O)CN1c1nc2c(c(-c3cccc(CNS(=O)(=O)C4CC4)c3)n1)CCC2 [Example 610]"
  class_name: 0
- molecule: "C[C@H]1CCN1c1nc2c(c(-c3cccc(CN4CC(O)C4)c3)n1)CCC2 [Example 350]"
  class_name: 1
- molecule: "C[C@H]1CCN1c1nc2c(c(-c3ccc(C(N)CS(C)(=O)=O)cc3)n1)CCC2 (some centres unmarked) [Example 768]"
  class_name: 1
- molecule: "CC(C)C[C@H]1C(F)CN1c1nc2c(c(-c3ccc(C(N)=O)cc3)n1)CCC2 (some centres unmarked) [Example 437]"
  class_name: 0
- molecule: "C[C@H]1CCN1c1nc2c(c(-c3cccc(C(=O)NCCC(N)=O)c3)n1)CCC2 [Example 220]"
  class_name: 0
- molecule: "C[C@H]1CCN1c1nc2c(c(-c3ccc4ccc(=O)n(CCC(=O)O)c4c3)n1)CCC2 [Example 133]"
  class_name: 0

----------
# test_target: UniProtKB P50053
# assay_overview: KHK Biochemical Assay (IC50), ADP-Glo, KHK-C
# particulars: ADP-Glo; average of at least two separate assays
// reported IC50 per item
value_kind: IC50 (nM)

- compound: "C[C@H]1CCN1c1nc2c(c(-c3ccc4c(c3)CC(=O)N4)n1)CCC2"
  test_target: "UniProtKB P50053"
  bound_sign: ">"
  obs_value: 100
- compound: "C[C@H]1CCN1c1nc2c(c(-c3ccc4c(c3)C(NS(C)(=O)=O)CCO4)n1)CCC2 (some centres unmarked)"
  test_target: "UniProtKB P50053"
  bound_sign: "="
  obs_value: 14.6
- compound: "CS(=O)(=O)NC1COc2cc(-c3nc(N4CC[C@@H]4C#N)nc4c3CCC4(F)F)ccc21 (some centres unmarked)"
  test_target: "UniProtKB P50053"
  bound_sign: "="
  obs_value: 3.5
- compound: "CC(=O)Nc1cccc(-c2nc(N3CC[C@@H]3C)nc3c2CCC3)c1"
  test_target: "UniProtKB P50053"
  bound_sign: "="
  obs_value: 57
- compound: "C[C@H]1CCN1c1nc2c(c(-c3ccc4ccc(=O)[nH]c4c3)n1)CCC2"
  test_target: "UniProtKB P50053"
  bound_sign: "="
  obs_value: 71.8
- compound: "C[C@H]1CCN1c1nc(-c2ccc(C(N)=O)cc2)c2c(n1)C(F)(F)CC2"
  test_target: "UniProtKB P50053"
  bound_sign: "="
  obs_value: 2.3
- compound: "C[C@H]1CCN1c1nc2c(c(-c3cnc4c(c3)NCCO4)n1)CCC2"
  test_target: "UniProtKB P50053"
  bound_sign: "="
  obs_value: 50
- compound: "C[C@H]1CCN1c1nc2c(c(-c3cn4cnc(C(=O)O)c4s3)n1)CCC2"
  test_target: "UniProtKB P50053"
  bound_sign: "="
  obs_value: 19.7
- compound: "C#CC1CCN1c1nc2c(c(-c3ccc(C(N)=O)cc3)n1)CCC2 (centres unmarked)"
  test_target: "UniProtKB P50053"
  bound_sign: "="
  obs_value: 152
- compound: "C[C@H]1[C@H](O)CN1c1nc(-c2ccc([C@]3(N)CCS(=O)(=O)C3)cc2)c2c(n1)C(F)(F)CC2 (single isomer, unassigned)"
  test_target: "UniProtKB P50053"
  bound_sign: "="
  obs_value: 4.6
- compound: "C[C@H]1CCN1c1nc2c(c(-c3ccnn3C)n1)CCC2"
  test_target: "UniProtKB P50053"
  bound_sign: "="
  obs_value: 156
- compound: "NC(=O)c1ccc(-c2nc(N3CC[C@@H]3CO)nc3c2CCC3)cc1"
  test_target: "UniProtKB P50053"
  bound_sign: "="
  obs_value: 43.1
- compound: "C[C@H]1CCN1c1nc(-c2ccccc2)c2c(n1)[C@H]1C[C@H]1C2 (single isomer, unassigned)"
  test_target: "UniProtKB P50053"
  bound_sign: "="
  obs_value: 9700
- compound: "C[C@H]1CCN1c1nc2c(c(-c3cc4cc(C(=O)O)ccc4[nH]3)n1)CCC2"
  test_target: "UniProtKB P50053"
  bound_sign: "="
  obs_value: 66.6

----------
# test_target: human KHK-A (Homo sapiens (Human))
# Sequence (P50053 other isoform, or with tags, fused parts or gaps): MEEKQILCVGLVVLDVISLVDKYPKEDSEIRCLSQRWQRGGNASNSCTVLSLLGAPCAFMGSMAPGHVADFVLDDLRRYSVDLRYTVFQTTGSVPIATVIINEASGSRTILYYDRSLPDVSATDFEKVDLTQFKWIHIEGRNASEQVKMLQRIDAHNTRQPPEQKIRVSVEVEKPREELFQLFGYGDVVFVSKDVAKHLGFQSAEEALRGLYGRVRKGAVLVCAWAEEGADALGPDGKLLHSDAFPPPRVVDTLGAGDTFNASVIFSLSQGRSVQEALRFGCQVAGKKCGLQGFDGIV
# assay_overview: KHK Biochemical Assay (IC50), ADP-Glo, KHK-A
# particulars: ADP-Glo; average of at least two separate assays
pIC50: −log10 of the molar value.
// reported pIC50 per item

- structure_as_smiles: "C[C@H]1CCN1c1nc2c(c(-c3cccc(C(=O)NCCO)c3)n1)CCC2"
  pIC50: 7.25
- structure_as_smiles: "C[C@H]1CCN1c1nc2c(c(-c3ccc4[nH]ncc4c3)n1)CCC2"
  pIC50: 7.06
- structure_as_smiles: "C[C@H]1CCN1c1nc2c(c(-c3ccc4c(c3)N(C)C(=O)CNC4)n1)CCC2"
  pIC50: 6.84
- structure_as_smiles: "COC(=O)CCc1cccc(-c2nc(N3CC[C@@H]3C)nc3c2CCC3)c1"
  pIC50: 6.02
- structure_as_smiles: "C[C@H]1CCN1c1nc2c(c(-c3ccc4[nH]nc(CC(=O)O)c4c3)n1)CCC2"
  pIC50: 7.53

----------
# test_target: human KHK-C (Homo sapiens (Human), UniProt P50053)
# Sequence (P50053 whole entry): as the sequence (P50053 whole entry) above
# assay_overview: KHK Biochemical Assay (IC50), ADP-Glo, KHK-C
# particulars: average of at least two separate assays
pIC50: −log10 of the molar value.

- compound: "C[C@H]1[C@H](O)CN1c1nc(-c2ccc3c(c2)C(F)(F)CC3NS(C)(=O)=O)c2c(n1)C(F)(F)CC2 (stereo partly shown)"
  pIC50: 8.70
- compound: "C[C@H]1CCN1c1nc2c(c(-c3ccc4oc(N)nc4c3)n1)CCC2"
  pIC50: 7.68
- compound: "CC1OCC2(COc3cc(-c4nc(N5C[C@@H](O)[C@@H]5C)nc5c4CCC5(F)F)ccc32)NC1=O (stereo partly shown)"
  pIC50: 9.70
- compound: "C[C@H]1CCN1c1nc2c(c(-c3cccc([C@H]4C[C@@H]4C(N)=O)c3)n1)CCC2 (stereo in doubt)"
  pIC50: 7.66
